Biological target: T1, CLDN6 endogenously expressed by human cancer cell lines (ARK2, OVCA429) (human, UniProt P56747 1-220)
T1 construct: Untagged endogenous protein; also called Endogenous CLDN6+
T1 sequence: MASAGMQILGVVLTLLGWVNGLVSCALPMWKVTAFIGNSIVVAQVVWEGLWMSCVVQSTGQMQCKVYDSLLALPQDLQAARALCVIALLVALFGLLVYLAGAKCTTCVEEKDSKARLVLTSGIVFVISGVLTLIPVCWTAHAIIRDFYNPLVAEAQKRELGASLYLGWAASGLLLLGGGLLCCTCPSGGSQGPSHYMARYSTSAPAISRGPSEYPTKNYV
Assay: FACS, AF647-labelled mAb, OVCA429 cells
Please provide measured pEC50 for the entries that follow.
Give bare numbers, as −log10 of the molar value.

Field: pEC50. Fill in for each record below.
1. AB5 (antibody, V domains shown, Labelled with Alexa Fluor 647 NHS ester for FACS) VH: EVQLQQSGPELVKPGASVKMSCKASGYIFTHYIMHWVKQKPGQGLEWIGCINPYNDGTKYNEKFKGKATLTSDKSSSTAYMELSSLTSEDSAVYYCARYYGYPYYSMDYWGQGTSVTVSS VL: DVLMTQTPLSLPVSLGDQPSISCRSSQSIVHSNGNTYLDWYLQKPGQSPKLLIYKVSNRFSGVPDRFSGSGSGTDFTLKISRVEAEDLGVYYCFQGSHVPFTFGSGTRLEIK
2. AB14 (antibody, V domains shown, Labelled with Alexa Fluor 647 NHS ester for FACS) VH: QVQLQQSGPELVRPGVSVKISCKGSGYTFTDYAMHWVKQSHAKSLEWIGVISTYSGNTNYNQKFQDKATMTVDKSSSTAYMALARLTSDDSAIYYCARRGDYSLYAMDYWGQGTSVTVSS VL: DIVLTQSPASLAVSLGQRATISCKASQSVDYDGDNYVNWYQQKVGQPPKLLISAASNLESGIPARFSGSGSGTDFTLNIHPVEEEDAATYYCQQSNEDPFTFGSGTKLEIK
3. AB7 (antibody, V domains shown, Labelled with Alexa Fluor 647 NHS ester for FACS) VH: EVQLQQSGPELVKPGASMKISCKASGYSFTGYTMNWVKQSHGKNLEWIGLINPYNGGTNYNQKFKGKATLTVDKSSSTAYMELLSLTSEDSAVYYCARGVYDYDGFTYWGQGTLVTVSA VL: QIVLTQSPAIMSASLGDRVTMTCTASSSVSSSYLHWYQQKPGSSPKLWIYSTSNLASGVPARFSGSGSGTSYSLTISSMEAEDAATYYCHQYHRSPPTFGSGTKLEIK

-- reply
1: 8.30; 2: 5.78; 3: 6.27

Where do these numbers come from? They come from patent US20250333501A1.
